target: UniProtKB Q15858; experiment: FLIPR or FLIPR TETRA sodium dye assay with KCl and test article pre-incubation; format: cell-based; settings: recombinant HEK293 cells expressing human Nav1.7; CoroNa Green sodium dye; veratridine + scorpion venom; read-out: FLIPR Nav 1.7 IC50 (μM) ± SEM
Sequence (Q15858 other isoform, or with tags, fused parts or gaps): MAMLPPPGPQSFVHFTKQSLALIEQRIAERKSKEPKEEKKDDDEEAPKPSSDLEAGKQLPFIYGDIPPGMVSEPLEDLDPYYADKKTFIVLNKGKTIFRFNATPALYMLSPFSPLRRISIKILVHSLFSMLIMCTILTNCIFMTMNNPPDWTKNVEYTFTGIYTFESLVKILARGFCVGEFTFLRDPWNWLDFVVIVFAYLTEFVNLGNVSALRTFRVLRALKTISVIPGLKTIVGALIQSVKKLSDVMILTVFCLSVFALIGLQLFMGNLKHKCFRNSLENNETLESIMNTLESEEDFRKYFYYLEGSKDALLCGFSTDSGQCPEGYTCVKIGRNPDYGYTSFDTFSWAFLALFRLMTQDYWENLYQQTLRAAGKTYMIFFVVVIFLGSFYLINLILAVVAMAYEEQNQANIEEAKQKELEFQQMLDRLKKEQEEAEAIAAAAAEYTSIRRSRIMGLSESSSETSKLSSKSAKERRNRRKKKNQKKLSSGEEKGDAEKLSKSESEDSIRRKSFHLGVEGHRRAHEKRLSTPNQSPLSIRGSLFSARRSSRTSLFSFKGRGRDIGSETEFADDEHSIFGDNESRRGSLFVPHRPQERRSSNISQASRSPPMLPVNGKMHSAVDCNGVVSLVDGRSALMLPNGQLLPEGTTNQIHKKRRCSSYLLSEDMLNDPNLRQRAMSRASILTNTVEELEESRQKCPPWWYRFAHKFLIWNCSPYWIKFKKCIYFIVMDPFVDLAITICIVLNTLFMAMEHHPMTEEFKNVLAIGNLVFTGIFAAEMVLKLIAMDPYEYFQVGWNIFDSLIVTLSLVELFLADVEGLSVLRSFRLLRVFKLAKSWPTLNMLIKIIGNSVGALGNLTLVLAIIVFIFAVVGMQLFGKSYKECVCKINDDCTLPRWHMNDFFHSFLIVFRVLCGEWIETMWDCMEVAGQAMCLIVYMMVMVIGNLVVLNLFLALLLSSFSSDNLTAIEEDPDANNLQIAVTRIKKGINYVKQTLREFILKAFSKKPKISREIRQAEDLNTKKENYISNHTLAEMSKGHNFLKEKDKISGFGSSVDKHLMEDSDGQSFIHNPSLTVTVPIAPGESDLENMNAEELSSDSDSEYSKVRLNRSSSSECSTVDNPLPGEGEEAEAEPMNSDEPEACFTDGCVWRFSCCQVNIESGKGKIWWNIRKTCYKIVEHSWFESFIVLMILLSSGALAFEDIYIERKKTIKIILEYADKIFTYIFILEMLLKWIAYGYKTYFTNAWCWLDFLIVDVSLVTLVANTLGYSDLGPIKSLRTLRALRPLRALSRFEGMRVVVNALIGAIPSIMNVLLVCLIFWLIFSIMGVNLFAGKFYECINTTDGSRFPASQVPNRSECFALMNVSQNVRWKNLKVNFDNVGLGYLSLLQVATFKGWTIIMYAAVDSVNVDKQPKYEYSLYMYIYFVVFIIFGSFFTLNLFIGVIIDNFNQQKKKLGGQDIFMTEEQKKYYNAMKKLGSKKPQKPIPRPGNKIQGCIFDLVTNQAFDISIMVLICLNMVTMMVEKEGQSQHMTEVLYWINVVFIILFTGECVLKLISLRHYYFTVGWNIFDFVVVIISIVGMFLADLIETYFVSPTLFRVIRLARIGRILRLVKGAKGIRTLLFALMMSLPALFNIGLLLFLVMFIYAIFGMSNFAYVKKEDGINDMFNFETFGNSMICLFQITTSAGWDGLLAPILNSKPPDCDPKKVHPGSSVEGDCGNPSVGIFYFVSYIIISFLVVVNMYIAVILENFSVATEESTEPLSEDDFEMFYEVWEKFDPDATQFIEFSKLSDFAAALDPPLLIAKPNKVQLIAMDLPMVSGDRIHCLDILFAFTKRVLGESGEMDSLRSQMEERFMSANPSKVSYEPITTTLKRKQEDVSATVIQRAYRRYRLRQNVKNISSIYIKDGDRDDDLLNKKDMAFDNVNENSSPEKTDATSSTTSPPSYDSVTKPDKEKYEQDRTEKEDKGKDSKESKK
Label key: y means IC50 under 0.5 µM; n means IC50 of 0.5 µM or more.

                          compound_structure  assigned_label
 0  NC(=O)[C@@H](O)[C@H](O)c1cccc(-c2ccc(Oc3ccc(Cl)nc3)cc2)n1               y
 1  NC(=O)[C@H](O)[C@@H](O)c1cccc(-c2ccc(Oc3ccc(C(F)(F)F)cn3)cc2)n1               n
 2  CNC(=O)[C@@H](O)[C@H](O)c1cn(-c2ccc(Oc3ccc(C(F)(F)F)cn3)cc2)c2ccccc12               y
 3  CCOC(=O)[C@@H](O)[C@H](O)c1cn(-c2ccc(Oc3ccc(C(F)(F)F)cn3)cc2)c2ccccc12               y
 4  NC(=O)[C@H](O)[C@@H](O)c1cccc(-c2ccc(Oc3ccc(C(F)(F)F)cc3)cc2)n1               y
 5  N#Cc1ccc(Oc2ccc(-c3cccc([C@H](O)[C@@H](O)C(N)=O)n3)cc2)cc1               n
 6  N#Cc1ccc(Oc2ccc(-c3cccc([C@@H](O)[C@H](O)C(N)=O)n3)cc2)cc1               y
 7  NC(=O)[C@H](O)[C@@H](O)c1cccc(-c2ccc(Oc3ccc(Cl)nc3)cc2)n1               n
 8  NC(=O)[C@@H](O)[C@H](O)c1cccc(-c2ccc(Oc3ccc(C(F)(F)F)cn3)cc2)n1               n
 9  NC(=O)[C@@H](O)[C@H](O)c1cccc(-c2ccc(Oc3ccc(C(F)(F)F)cc3)cc2)n1               y
10  NC(=O)[C@H](O)[C@@H](O)c1ccnc(-c2ccc(Oc3ccc(F)cc3)cc2)n1               n
11  N#Cc1ccc(Oc2ccc(-c3cccc([C@@H](O)[C@H](O)C(N)=O)n3)cc2)cc1C(F)(F)F               y
